# pIC50 per entry
Tested on: human nasopharyngeal carcinoma KB cells
ASSAY: MTT assay
Type: cell-based
EXPERIMENTAL_CONDITIONS: Homo sapiens, KB; MTT assay, 72 hr
Note on units: pIC50 is unitless, being -log10 of a concentration expressed in mol/L.

Example entries and their recorded answers appear below.
COc1ccc(S(=O)(=O)Nc2cccc3c2[nH]c2c(C)ccc(C)c23)cc1	6.10
O=S(=O)(Nc1cccc2c(/N=N/c3ccccc3)c[nH]c12)c1ccc(Cl)cc1	4.82
Cc1ccc(S(=O)(=O)Nc2cccc3c2[nH]c2c(C)ccc(C)c23)cc1	5.60

Lab note: next compound to report on.
Form field: reported pIC50 of `O=[N+]([O-])c1ccc(/N=N/c2c[nH]c3c(NS(=O)(=O)c4ccc(Cl)cc4)cccc23)cc1`
5.35

// data source = patent US8173693B2
